Source: PubChem BioAssay (NCI)

Test system: NCI/ADR-RES ovarian
Test: NCI-60 one-dose screen, 48 h
Conditions: 10 µM unless noted
The panel holds about 83,000 compounds, 20% with a hit somewhere; the sample as a whole holds those more often. Active and inactive are the calls of the source. The calls were made as follows: active = growth percent below 10; inactive = the rest.
Lab note: assign the record to one of 1 (yes) (active), 0 (no) (inactive)

Called result for "CC1=C(C)C(=O)C(Nc2cccc(C)c2)=C(Br)C1=O"
0 (no)

Hi team, can someone confirm the assay call for "C#C[C@]1(O)CC[C@H]2[C@@H]3CC=C4c5sc(Nc6ccc(C)cn6)nc5CC[C@]4(C)[C@H]3CC[C@@]21C" ?
0 (no)

I would be grateful if you could indicate the recorded call for "C#CCOc1ccc(/C=N/Nc2nc(-c3ccc(OC)cc3)cs2)cc1" .
0 (no)

Record request — test call for C/C(CC1(O)C(=O)Nc2ccccc21)=N\O (centres undefined)
0 (no)

How was "Clc1cccc(/C=N/Nc2nc(N/N=C/c3cccc(Cl)c3)nc(N3CCCCC3)n2)c1" classified in this test?
0 (no)

What was the test verdict on "COc1cccc2c1[C@H](OC)[C@]13O[C@@]1(C2=O)[C@H](O)[C@H](C)[C@@](O)(C(=O)[C@@H]1O[C@H]1C)[C@@H]3O" ?
1 (yes)

For this compound, state the assay outcome: "O=S(=O)(NCCCNc1nccc(-c2[nH]c(-c3ccccc3)nc2-c2ccc(F)c(O)c2)n1)c1cccc(F)c1"
0 (no)

Which outcome was assigned to "O=C(COc1ccc(/C=C2\C(=O)Nc3ccc(Cl)cc32)cc1)Nc1ccc(Cl)cc1" in this test?
0 (no)

What classification did "COc1cc(C(C)=C(c2ccc(OCCN(C)C)cc2)c2ccc(OCCN(C)C)cc2)ccc1F" end up with in this test?
0 (no)
